biological target: CDK2 (Homo sapiens, UniProt P24941); test: CDK2 HTRF assay (cellular endogenous CDK2 level); assay type: cell-based; design: High-Throughput Measurement of Cellular Endogenous CDK2; endogenous in cells; host or cells: OVCAR3; conditions: OVCAR-3; OVCAR3 cells, 24 hours, 0.3 to 10,000 nM; read-out: max degradation of CDK2
Task for the reader: assign each of the following compounds its reported Dmax.

**Query** // returns reported Dmax for input Cn1c(=O)n(C2CCC(=O)NC2=O)c2cccc(CCCOC3CCN(S(=O)(=O)N4CCC(Nc5ncc6ccc(=O)n(C7CCCC7)c6n5)CC4)CC3)c21 (stereo not drawn)
**Result** 35 to 90%

**Query** // returns reported Dmax for input O=C1CCC(N2Cc3cc(N4CC(N5CCN(c6cccc(S(=O)(=O)N7CCC(Nc8ncc9ccc(=O)n(C%10CCCC%10)c9n8)CC7)c6)CC5)C4)ccc3C2=O)C(=O)N1 (stereo not drawn)
**Result** 35 to 90%

**Query** // returns reported Dmax for input O=C1CCC(N2Cc3cc(C4CCN(CC5CCN(c6cccc(S(=O)(=O)N7CCC(Nc8ncc9ccc(=O)n(C%10CCCC%10)c9n8)CC7)c6)CC5)CC4)ccc3C2=O)C(=O)N1 (stereo not drawn)
**Result** 35 to 90%

* * *

target: CDK2 (Homo sapiens, UniProt P24941); assay: Phospho-Rb HTRF measurement in OVCAR3 cells (inhibition of CDK2); format: cell-based; set-up: High-Throughput Measurement of Cellular Endogenous CDK2; endogenous in cells; host or cells: OVCAR3; settings: pRB(S807/811) assay, 24 h compound treatment
Task for the reader: assign each of the following compounds its reported pIC50.
Field pIC50 (float): negative decimal logarithm of the concentration in molar.

**Query** // returns reported pIC50 for input Cn1c(=O)n(C2CCC(=O)NC2=O)c2cccc(CCCOCCNS(=O)(=O)N3CCC(Nc4ncc5ccc(=O)n(C6CCCC6)c5n4)CC3)c21 (stereo not drawn) [Compound 18]
**Result** 6.15

**Query** // returns reported pIC50 for input CN(CCCN1CCC(c2cccc3c2n(C)c(=O)n3C2CCC(=O)NC2=O)CC1)S(=O)(=O)N1CCC(Nc2ncc3ccc(=O)n(C4CCCC4)c3n2)CC1 (stereo not drawn) [Compound 23]
**Result** 7.87

**Query** // returns reported pIC50 for input O=C(COc1cccc2c1C(=O)N(C1CCC(=O)NC1=O)C2=O)NCCOCCOCCOCCOCCN1CCN(S(=O)(=O)N2CCC(Nc3ncc4ccc(=O)n(C5CCCC5)c4n3)CC2)CC1 (stereo not drawn) [compound 6]
**Result** 5.65

**Query** // returns reported pIC50 for input O=C1CCC(N2C(=O)c3cc(F)c(N4CCN(Cc5cccc(S(=O)(=O)N6CCC(Nc7ncc8cc(C(F)F)c(=O)n(C9CCCC9)c8n7)CC6)c5)CC4)cc3C2=O)C(=O)N1 (stereo not drawn) [Compound 45]
**Result** 6.57

**Query** // returns reported pIC50 for input O=C1CCC(N2Cc3c(OCCN4CC(Oc5cccc(S(=O)(=O)N6CCC(Nc7ncc8ccc(=O)n(C9CCCC9)c8n7)CC6)c5)C4)cccc3C2=O)C(=O)N1 (stereo not drawn) [Compound 27]
**Result** 6.05

**Query** // returns reported pIC50 for input CN(C1CCN(Cc2cccc3c2n(C)c(=O)n3C2CCC(=O)NC2=O)CC1)S(=O)(=O)N1CCC(Nc2ncc3ccc(=O)n(C4CCCC4)c3n2)CC1 (stereo not drawn) [Compound 20]
**Result** 5.93

**Query** // returns reported pIC50 for input O=C1CCC(N2Cc3cc(N4CCN(CC5CCN(c6cccc(S(=O)(=O)N7CCC(Nc8ncc9ccc(=O)n(C%10CCCC%10)c9n8)CC7)c6)CC5)CC4)ccc3C2=O)C(=O)N1 (stereo not drawn) [Compound 36]
**Result** 7.59

**Query** // returns reported pIC50 for input O=C1CCC(N2C(=O)c3cc(F)c(N4CCN(Cc5cc(F)cc(S(=O)(=O)N6CCC(Nc7ncc8ccc(=O)n(C9CCCC9)c8n7)CC6)c5)CC4)cc3C2=O)C(=O)N1 (stereo not drawn) [Compound 43]
**Result** 6.33

**Query** // returns reported pIC50 for input Cn1nc(N2CCC(=O)NC2=O)c2ccc(C3CCN(Cc4cccc(S(=O)(=O)N5CCC(Nc6ncc7ccc(=O)n(C8CCCC8)c7n6)CC5)c4)CC3)cc21 [Compound 71]
**Result** 7.99

**Query** // returns reported pIC50 for input Cn1c(=O)n(C2CCC(=O)NC2=O)c2cccc(C3CCN(C4CC5(C4)CN(S(=O)(=O)N4CCC(Nc6ncc7ccc(=O)n(C8CCCC8)c7n6)CC4)C5)CC3)c21 (stereo not drawn) [Compound 32]
**Result** 6.50

**Query** // returns reported pIC50 for input CC1(O)CCCC1n1c(=O)ccc2cnc(NC3CCN(S(=O)(=O)c4cccc(CN5CCN(c6cc7c(cc6F)C(=O)N(C6CCC(=O)NC6=O)C7=O)CC5)c4)CC3)nc21 (stereo not drawn) [Compound 44]
**Result** 6.39

**Query** // returns reported pIC50 for input N#Cc1cc2cnc(NC3CCN(S(=O)(=O)c4cccc(CN5CCN(c6cc7c(cc6F)C(=O)N(C6CCC(=O)NC6=O)C7=O)CC5)c4)CC3)nc2n(C2CCCC2)c1=O (stereo not drawn) [Compound 46]
**Result** 5.53

**Query** // returns reported pIC50 for input O=C1CCC(N2C(=O)c3cc(F)c(N4CC5CCC(C4)N5Cc4cccc(S(=O)(=O)N5CCC(Nc6ncc7ccc(=O)n(C8CCCC8)c7n6)CC5)c4)cc3C2=O)C(=O)N1 (stereo not drawn) [Compound 49]
**Result** 6.08

**Query** // returns reported pIC50 for input O=C1CCC(N2C(=O)c3cc(F)c(N4C5CCC4CN(Cc4cccc(S(=O)(=O)N6CCC(Nc7ncc8ccc(=O)n(C9CCCC9)c8n7)CC6)c4)C5)cc3C2=O)C(=O)N1 (stereo not drawn) [Compound 47]
**Result** 5.39

**Query** // returns reported pIC50 for input O=C1CCC(N2Cc3cc(N4CC(N5CCN(c6cccc(S(=O)(=O)N7CCC(Nc8ncc9ccc(=O)n(C%10CCCC%10)c9n8)CC7)c6)CC5)C4)ccc3C2=O)C(=O)N1 (stereo not drawn) [Compound 69]
**Result** 7.50

**Query** // returns reported pIC50 for input CN1C(=O)CCC(N2C(=O)c3cccc(OCC(=O)NCCOCCN4CCN(S(=O)(=O)N5CCC(Nc6ncc7ccc(=O)n(C8CCCC8)c7n6)CC5)CC4)c3C2=O)C1=O (stereo not drawn) [compound 5]
**Result** 5.23

**Query** // returns reported pIC50 for input O=C1CCC(N2C(=O)c3cccc(NCCOCCOCCOCCNCCCS(=O)(=O)N4CCC(Nc5ncc6ccc(=O)n(C7CCCC7)c6n5)CC4)c3C2=O)C(=O)N1 (stereo not drawn) [Compound 25]
**Result** 5.97

**Query** // returns reported pIC50 for input O=C1CCC(N2C(=O)c3cccc(CCCOCCOCCNS(=O)(=O)N4CCC(Nc5ncc6ccc(=O)n(C7CCCC7)c6n5)CC4)c3C2=O)C(=O)N1 (stereo not drawn) [Compound 11]
**Result** 5.69

**Query** // returns reported pIC50 for input O=C1CCC(N2Cc3cc(N4CCC(CN5CCN(c6cccc(S(=O)(=O)N7CCC(Nc8ncc9ccc(=O)n(C%10CCCC%10)c9n8)CC7)c6)CC5)CC4)ccc3C2=O)C(=O)N1 (stereo not drawn) [Compound 38]
**Result** 7.95

**Query** // returns reported pIC50 for input O=C1CCC(N2C(=O)c3ccc(N4CC(Oc5ccc(S(=O)(=O)N6CCC(Nc7ncc8ccc(=O)n(C9CCCC9)c8n7)CC6)cc5)C4)cc3C2=O)C(=O)N1 (stereo not drawn) [compound 7]
**Result** 5.95

**Query** // returns reported pIC50 for input O=C1CCC(N2Cc3cc(N4CCN(Cc5cccc(S(=O)(=O)N6CCC(Nc7ncc8cc(C(F)F)c(=O)n(C9CCCC9)c8n7)CC6)c5)CC4)ccc3C2=O)C(=O)N1 (stereo not drawn) [Compound 56]
**Result** 7.17

Recorded values, source patent US20250018049A1.
